Cited source for all entries: patent US9133207B2

Test system: RPMI8226 (multiple myeloma)
ASSAY_METHOD_TEXT: Multiple myeloma cell growth inhibition, MTT, 72 h (Example 6)
Format: cell-based, human
MEASUREMENT_CONDITIONS: Homo sapiens, RPMI-8226; 72 h, MTT, RPMI8226
OBSERVATION_TYPE: IC50 (µg/mL)
Write it as a number; the unit µg/mL goes unstated.

# query: IC50 of entry COCc1c2c3c(c(OC)c1OC)Oc1cc4c(cc1OC)CCN(C)[C@H]4Cc1ccc(cc1)Oc1cc(ccc1OC)C[C@@H]3N(C)CC2 [BS-TE-420]
0.29

Dear colleague, I am looking for the recorded IC50 of the following compound: COc1ccc2cc1Oc1ccc(cc1)C[C@H]1c3cc(c(OC)cc3CCN1C)Oc1c(OC)c(OC)c(Cn3cccn3)c3c1[C@H](C2)N(C)CC3 [BS-TE-330]
0.18

Name the recorded IC50 for COc1ccc2cc1Oc1ccc(cc1)C[C@H]1c3cc(c(OC)cc3CCN1C)Oc1c(OC)c(OC)c(CNCc3ccc(C)o3)c3c1[C@H](C2)N(C)CC3 [BS-TE-358] .
0.08

Which IC50 reading was recorded for the compound COCC(C)OCc1c2c3c(c(OC)c1OC)Oc1cc4c(cc1OC)CCN(C)[C@H]4Cc1ccc(cc1)Oc1cc(ccc1OC)C[C@@H]3N(C)CC2 (stereo partly shown) [BS-TE-406] ?
0.52

Please report the recorded IC50 for COc1ccc2cc1Oc1ccc(cc1)C[C@H]1c3cc(c(OC)cc3CCN1C)Oc1c(OC)c(OC)c(COCC3CCOC3)c3c1[C@H](C2)N(C)CC3 (stereo partly shown) [BS-TE-417] .
0.27

Given COc1ccc2cc1Oc1ccc(cc1)C[C@H]1c3cc(c(OC)cc3CCN1C)Oc1c(OC)c(OC)c(CN3CCSCC3)c3c1[C@H](C2)N(C)CC3 [BS-TE-328] , state its recorded IC50.
0.15

Find the recorded IC50 belonging to COc1ccc2cc1Oc1ccc(cc1)C[C@H]1c3cc(c(OC)cc3CCN1C)Oc1c(OC)c(OC)c(COC(C)=O)c3c1[C@H](C2)N(C)CC3 [BS-TE-223] and report it.
0.23

Record request: IC50 value, item COCCCOCc1c2c3c(c(OC)c1OC)Oc1cc4c(cc1OC)CCN(C)[C@H]4Cc1ccc(cc1)Oc1cc(ccc1OC)C[C@@H]3N(C)CC2 [BS-TE-416]
0.29

What value of IC50 has been recorded for this entry: COc1ccc2cc1Oc1ccc(cc1)C[C@H]1c3cc(c(OC)cc3CCN1C)Oc1c(OC)c(OC)c(CN3CC=CC3)c3c1[C@H](C2)N(C)CC3 [BS-TE-329]
0.004

Consider the compound shown here: COc1ccc2cc1Oc1ccc(cc1)C[C@H]1c3cc(c(OC)cc3CCN1C)Oc1c(OC)c(OC)c(CSc3ccccc3)c3c1[C@H](C2)N(C)CC3 [BS-TE-421] What is its recorded IC50?
0.19

Record request: IC50 value, item CCN1CCN(Cc2c3c4c(c(OC)c2OC)Oc2cc5c(cc2OC)CCN(C)[C@H]5Cc2ccc(cc2)Oc2cc(ccc2OC)C[C@@H]4N(C)CC3)CC1 [BS-TE-342]
0.006

Look at this compound and give its reported IC50. COc1ccc2cc1Oc1ccc(cc1)C[C@H]1c3cc(c(OC)cc3CCN1C)Oc1c(OC)c(OC)c(CN(C)[C@@H](C)c3ccccc3)c3c1[C@H](C2)N(C)CC3 [BS-TE-317]
0.06

What does the data say about its IC50? Entry: COc1ccc2cc1Oc1ccc(cc1)C[C@H]1c3cc(c(OC)cc3CCN1C)Oc1c(OC)c(OC)c(CN3CCCN(C)CC3)c3c1[C@H](C2)N(C)CC3 [BS-TE-356]
0.11

For the compound COc1ccc2cc1Oc1ccc(cc1)C[C@H]1c3cc(c(OC)cc3CCN1C)Oc1c(OC)c(OC)c(CN3CCCC(CO)C3)c3c1[C@H](C2)N(C)CC3 (stereo partly shown) [BS-TE-351] , what IC50 is on record?
0.09

What does the data say about its IC50? Entry: COc1ccc2cc1Oc1ccc(cc1)C[C@H]1c3cc(c(OC)cc3CCN1C)Oc1c(OC)c(OC)c(COC(=O)c3ccco3)c3c1[C@H](C2)N(C)CC3 [BS-TE-216]
0.54

I'd like to know its IC50. The compound in question is COc1ccc2cc1Oc1ccc(cc1)C[C@H]1c3cc(c(OC)cc3CCN1C)Oc1c(OC)c(OC)c(CN3CCN(c4ccccc4)CC3)c3c1[C@H](C2)N(C)CC3 [BS-TE-343]
0.05

What IC50 value was documented for this compound, CNCc1c2c3c(c(OC)c1OC)Oc1cc4c(cc1OC)CCN(C)[C@H]4Cc1ccc(cc1)Oc1cc(ccc1OC)C[C@@H]3N(C)CC2 [BS-TE-326] ?
0.27

Give the measured IC50 of COc1ccc2cc1Oc1ccc(cc1)C[C@H]1c3cc(c(OC)cc3CCN1C)Oc1c(OC)c(OC)c(CNCc3ccco3)c3c1[C@H](C2)N(C)CC3 [BS-TE-350] .
0.05

Reported IC50, compound COCCCNCc1c2c3c(c(OC)c1OC)Oc1cc4c(cc1OC)CCN(C)[C@H]4Cc1ccc(cc1)Oc1cc(ccc1OC)C[C@@H]3N(C)CC2 [BS-TE-340] : ____
0.18

Requested field: IC50. Item: COc1ccc2cc1Oc1ccc(cc1)C[C@H]1c3cc(c(OC)cc3CCN1C)Oc1c(OC)c(OC)c(CN3CCCC3)c3c1[C@H](C2)N(C)CC3 [BS-TE-305]
0.006

Can you share its IC50? I mean this compound: COc1ccc2cc1Oc1ccc(cc1)C[C@H]1c3cc(c(OC)cc3CCN1C)Oc1c(OC)c(OC)c(CNCc3cccnc3)c3c1[C@H](C2)N(C)CC3 [BS-TE-348]
0.09

Name the recorded IC50 for COc1ccc2cc1Oc1ccc(cc1)C[C@H]1c3cc(c(OC)cc3CCN1C)Oc1c(OC)c(OC)c(CN3CCCCC3)c3c1[C@H](C2)N(C)CC3 [BS-TE-355] .
0.04
